Target: T1, human MSLN protein endogenously expressed on OVCAR3 tumor cells (human, UniProt Q13421 296-598)
T1 construct: whole, on cells; endogenous expression on a tumor cell line; also called human mesothelin
T1 sequence (Q13421 other isoform, or with tags, fused parts or gaps): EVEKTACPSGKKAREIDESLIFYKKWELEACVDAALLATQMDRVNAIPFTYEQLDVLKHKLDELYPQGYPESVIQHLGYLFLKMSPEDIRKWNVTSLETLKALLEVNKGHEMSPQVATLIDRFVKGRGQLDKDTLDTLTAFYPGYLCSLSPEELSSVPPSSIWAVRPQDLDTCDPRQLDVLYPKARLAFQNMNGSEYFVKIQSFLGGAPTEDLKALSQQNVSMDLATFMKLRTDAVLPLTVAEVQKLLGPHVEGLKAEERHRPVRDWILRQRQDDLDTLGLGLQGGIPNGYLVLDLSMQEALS
Experiment: FACS on OVCAR3 cells;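 also: flow cytometry of chimeric antibody binding to OVCAR3 cells, 2 h on ice, read as cellular mean fluorescence intensity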
attribute.measured: Maximum mean fluorescence intensity
Answers are plain numbers.

INSERT INTO results (binder, readout_number) VALUES
  ('S009-F8-31.22 (antibody, human IgG1, kappa, V domains shown, human-murine chimeric antibody, human IgG1/kappa constant regions) VH: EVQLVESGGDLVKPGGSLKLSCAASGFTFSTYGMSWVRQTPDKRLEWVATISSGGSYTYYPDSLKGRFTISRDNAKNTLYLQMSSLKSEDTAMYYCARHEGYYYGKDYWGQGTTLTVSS VL: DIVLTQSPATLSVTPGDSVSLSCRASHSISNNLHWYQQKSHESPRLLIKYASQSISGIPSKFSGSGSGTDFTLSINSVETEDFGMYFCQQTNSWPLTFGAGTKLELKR', 7750),
  ('S009-F8-7.5 (antibody, human IgG1, kappa, V domains shown, human-murine chimeric antibody, human IgG1/kappa constant regions) VH: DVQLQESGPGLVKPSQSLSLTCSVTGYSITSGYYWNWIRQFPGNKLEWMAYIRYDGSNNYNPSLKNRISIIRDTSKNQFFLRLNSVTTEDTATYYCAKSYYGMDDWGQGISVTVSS VL: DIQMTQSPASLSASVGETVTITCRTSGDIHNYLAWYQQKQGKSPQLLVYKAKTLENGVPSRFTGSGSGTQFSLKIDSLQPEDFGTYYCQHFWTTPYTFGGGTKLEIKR', 8990),
  ('S009-F8-8.22 (antibody, human IgG1, kappa, V domains shown, human-murine chimeric antibody, human IgG1/kappa constant regions) VH: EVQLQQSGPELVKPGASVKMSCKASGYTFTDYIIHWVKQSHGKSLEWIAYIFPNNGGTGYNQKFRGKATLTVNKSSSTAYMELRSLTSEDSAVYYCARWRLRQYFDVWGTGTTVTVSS VL: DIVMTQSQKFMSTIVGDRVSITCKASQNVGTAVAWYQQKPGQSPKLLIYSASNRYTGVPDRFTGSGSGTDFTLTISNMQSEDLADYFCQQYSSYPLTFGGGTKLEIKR', 4270),
  ('S009-F8-9.16 (antibody, human IgG1, kappa, V domains shown, human-murine chimeric antibody, human IgG1/kappa constant regions) VH: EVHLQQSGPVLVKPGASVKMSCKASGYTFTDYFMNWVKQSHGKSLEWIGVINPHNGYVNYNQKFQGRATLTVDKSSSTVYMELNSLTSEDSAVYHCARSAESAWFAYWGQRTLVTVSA VL: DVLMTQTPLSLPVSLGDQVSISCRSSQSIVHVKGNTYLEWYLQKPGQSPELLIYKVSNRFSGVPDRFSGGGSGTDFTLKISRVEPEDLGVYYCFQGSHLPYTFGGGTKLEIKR', 5380);

Next:
Fill in: Maximum mean fluorescence intensity of S009-F8-27.1 (antibody, human IgG1, kappa, V domains shown, human-murine chimeric antibody, human IgG1/kappa constant regions) VH: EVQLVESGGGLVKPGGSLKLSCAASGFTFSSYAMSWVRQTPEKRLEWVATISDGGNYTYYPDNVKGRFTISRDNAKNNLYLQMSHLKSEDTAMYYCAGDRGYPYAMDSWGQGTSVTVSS VL: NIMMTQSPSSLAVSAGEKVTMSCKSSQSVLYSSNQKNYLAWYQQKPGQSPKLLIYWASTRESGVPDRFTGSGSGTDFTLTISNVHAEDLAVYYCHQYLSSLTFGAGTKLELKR is ___
7620

Reference source: patent US20250250357A1
